tested on: C. krusei 1447; assay: Sensititre YeastOne antifungal susceptibility test; type: cell-based; settings: Pichia kudriavzevii, 1447
Starred links: 1 amine or outer side, 2 acyl side, 3 side chain; linkers in the order of their positions; H or OH if unused. Positions of bridges follow the written chain, without caps; N, C: chain ends. Non-standard residues stand in square brackets, D forms with d. Residues, ends and D or L forms follow the SMILES beside them. *: point of attachment. hTyr(3S-OH,4S-OH,3'-OSO3H) = N[C@H](C(=O)O)[C@H](O)[C@@H](O)c1ccc(O)c(OS(=O)(=O)O)c1; pTerphenylCO(4''-OnC5H11) = CCCCCOc1ccc(-c2ccc(-c3ccc(C(=O)*)cc3)cc2)cc1; Orn(4R-OH,5R-OH) = O=C([C@H](C[C@@H](O)[C@@H](O)N[*:3])N[*:1])[*:2]; hTyr(3S-OH,4S-OH) = N[C@H](C(=O)O)[C@H](O)[C@@H](O)c1ccc(O)cc1; Pro(3S-OH,4S-Me) = C[C@H]1CN[C@H](C(=O)O)[C@H]1O; X1 = CCCCCOc1ccc(-c2cc(-c3ccc(C(=O)*)cc3)no2)cc1; Gln(3R-OH) = NC(=O)C[C@@H](O)[C@H](N)C(=O)O; Hyp = O=C(O)[C@@H]1C[C@@H](O)CN1
MIC vs 0.2 µg/mL: less than gives met; not less than gives not met.

compound	system	label-value
CC[C@H](C)C[C@H](C)CCCCCCCCC(=O)N[C@H]1C[C@@H](O)[C@@H](NCCN)NC(=O)[C@@H]2[C@@H](O)CCN2C(=O)[C@H]([C@H](O)CCN)NC(=O)[C@H]([C@H](O)[C@@H](O)c2ccc(O)cc2)NC(=O)[C@@H]2C[C@@H](O)CN2C(=O)[C@H]([C@@H](C)O)NC1=O	C. krusei 1447	not met
Nc1[nH]c(=O)ncc1F	C. krusei 1447	not met
CCCCCOc1ccc(-c2cc(-c3ccc(C(=O)N[C@H]4C[C@@H](O)[C@@H](O)NC(=O)[C@@H]5[C@@H](O)[C@@H](C)CN5C(=O)[C@H]([C@H](O)CC(N)=O)NC(=O)[C@H]([C@H](O)[C@@H](O)c5ccc(O)c(OS(=O)(=O)O)c5)NC(=O)[C@@H]5C[C@@H](O)CN5C(=O)[C@H]([C@@H](C)O)NC4=O)cc3)no2)cc1 [MF, micafungin] (X1-[Orn(4R-OH,5R-OH)]T[Hyp][hTyr(3S-OH,4S-OH,3'-OSO3H)][Gln(3R-OH)][Pro(3S-OH,4S-Me)]; lactam 1-C)	C. krusei 1447	met
C[C@@H]1[C@H](O)[C@@H](C)/C=C/C=C/C=C/C=C/C=C/C=C/C=C/[C@H](O[C@@H]2O[C@H](C)[C@@H](O)[C@H](N)[C@@H]2O)C[C@@H]2O[C@](O)(C[C@@H](O)C[C@@H](O)[C@H](O)CC[C@@H](O)C[C@@H](O)CC(=O)O[C@H]1C)C[C@H](O)[C@H]2C(=O)O	C. krusei 1447	not met
CCCCCOc1ccc(-c2ccc(-c3ccc(C(=O)N[C@H]4C[C@@H](O)[C@@H](O)NC(=O)[C@@H]5[C@@H](O)[C@@H](C)CN5C(=O)[C@H]([C@@H](C)O)NC(=O)[C@H]([C@H](O)[C@@H](O)c5ccc(O)cc5)NC(=O)[C@@H]5C[C@@H](O)CN5C(=O)[C@H]([C@@H](C)O)NC4=O)cc3)cc2)cc1 [AND, anidulafungin] ({pTerphenylCO(4''-OnC5H11)}-[Orn(4R-OH,5R-OH)]T[Hyp][hTyr(3S-OH,4S-OH)]T[Pro(3S-OH,4S-Me)]; lactam 1-C)	C. krusei 1447	met
CC(=O)N1CCN(c2ccc(OCC3COC(Cn4ccnc4)(c4ccc(Cl)cc4Cl)O3)cc2)CC1 (stereo not drawn)	C. krusei 1447	not met
